- run.description: in vitro
- setup.conditions: male, Large White, pig
- Protocol: Primary pig hepatocytes were isolated from Large White male pigs (3–5 days old) using procedure described by Chen et al.. […] After the incubation, the primary pig hepatocytes were washed three times with phosphate buffer saline solution (PBS) before they were treated with steroids and/or inhibitors. […] The cell viability was analyzed using CellTiter-Glo Luminescent Cell Viability Assay (Promega, Madison, WI) reagent following manufacture’s protocol. […]
readout.type: viability at 48 h, 25 µM
Just the number plus its unit, please.

compound | viability at 48 h, 25 µM
C[C@]12CC[C@H]3[C@@H](CC[C@@]45O[C@@H]4C(O)=C(C#N)C[C@]35C)[C@@H]1CC[C@@H]2O | 79.1%

# input Quote viability at 48 h, 25 µM reported for C[C@]12CC[C@@H]3c4ccc(O)cc4CC[C@H]3[C@@H]1CC[C@@H]2O please.
# output 89.8%

# input Quote viability at 48 h, 25 µM reported for C[C@]12CCC(=O)C[C@@H]1CC[C@@H]1[C@@H]2CC[C@]2(C)C=CC[C@@H]12 please.
# output 77.2%

# input Quote viability at 48 h, 25 µM reported for O=c1cc(-c2ccc(O)cc2)oc2cc(O)cc(O)c12 please.
# output 64.2%

# input Quote viability at 48 h, 25 µM reported for C[C@]12CCC(=O)C[C@@H]1CC[C@@H]1[C@@H]2CC[C@]2(C)[C@@H](O)CC[C@@H]12 [Dihydrotestosterone] please.
# output 79.1%

---

Each entry below carries its recorded viability at 48 h, 1 µM.
- run.description: Cytotoxicity of steroids and HSD inhibitors (CellTiter-Glo Luminescent Cell Viability Assay)
- setup.conditions: male, Large White, pig
Hi! Could you send only the number? It should be in %, unit omitted.

compound | viability at 48 h, 1 µM, %
C[C@]12CCC(=O)C[C@@H]1CC[C@@H]1[C@@H]2CC[C@]2(C)[C@@H](O)CC[C@@H]12 [Dihydrotestosterone] | 96.7
C[C@]12CC[C@H]3[C@@H](CC[C@@]45O[C@@H]4C(O)=C(C#N)C[C@]35C)[C@@H]1CC[C@@H]2O | 91.8
C[C@]12CCC(=O)C[C@@H]1CC[C@@H]1[C@@H]2CC[C@]2(C)C=CC[C@@H]12 | 90.6

# input Quote viability at 48 h, 1 µM reported for O=c1cc(-c2ccc(O)cc2)oc2cc(O)cc(O)c12 please.
# output 97.7

# input Quote viability at 48 h, 1 µM reported for C[C@]12CC[C@@H]3c4ccc(O)cc4CC[C@H]3[C@@H]1CC[C@@H]2O please.
# output 109

---

- run.description: in vitro
- setup.conditions: male, Large White, pig
readout.type: viability at 48 h, 50 µM (%)
Hi! Could you send only the number? It should be in %, unit omitted.

Some molecules with recorded viability at 48 h, 50 µM:
molecule | readout.type | endpoint.result
C[C@]12CC[C@H]3[C@@H](CC[C@@]45O[C@@H]4C(O)=C(C#N)C[C@]35C)[C@@H]1CC[C@@H]2O [Trilostane, trilostane] | viability at 48 h, 50 µM | 69.2
C[C@]12CCC(=O)C[C@@H]1CC[C@@H]1[C@@H]2CC[C@]2(C)[C@@H](O)CC[C@@H]12 [Dihydrotestosterone] | viability at 48 h, 50 µM | 76.1
O=c1cc(-c2ccc(O)cc2)oc2cc(O)cc(O)c12 [Apigenin, apigenin] | viability at 48 h, 50 µM | 69.8
C[C@]12CC[C@@H]3c4ccc(O)cc4CC[C@H]3[C@@H]1CC[C@@H]2O [17β-Estradiol] | viability at 48 h, 50 µM | 83.6

Now consider the entry below.
# input Quote viability at 48 h, 50 µM reported for C[C@]12CCC(=O)C[C@@H]1CC[C@@H]1[C@@H]2CC[C@]2(C)C=CC[C@@H]12 [Androstenone, 5α-androst-16-ene-3-one] please.
# output 78.7

---

- run.description: in vitro
- setup.conditions: male, Large White, pig
Each entry below carries its recorded viability at 48 h, 10 µM.
Hi! Could you send only the number? It should be in %, unit omitted.

# input Quote viability at 48 h, 10 µM reported for C[C@]12CC[C@@H]3c4ccc(O)cc4CC[C@H]3[C@@H]1CC[C@@H]2O [17β-Estradiol] please.
# output 91.6

# input Quote viability at 48 h, 10 µM reported for O=c1cc(-c2ccc(O)cc2)oc2cc(O)cc(O)c12 [Apigenin, apigenin] please.
# output 83.5

---

- run.description: Cytotoxicity of steroids and HSD inhibitors (CellTiter-Glo Luminescent Cell Viability Assay)
- setup.conditions: male, Large White, pig
Each entry below carries its recorded viability at 48 h, 10 µM.
Hi! Could you send only the number? It should be in %, unit omitted.

compound | endpoint.result
C[C@]12CCC(=O)C[C@@H]1CC[C@@H]1[C@@H]2CC[C@]2(C)[C@@H](O)CC[C@@H]12 [Dihydrotestosterone] | 84.3
C[C@]12CC[C@H]3[C@@H](CC[C@@]45O[C@@H]4C(O)=C(C#N)C[C@]35C)[C@@H]1CC[C@@H]2O [Trilostane, trilostane] | 82.4

Now consider the entry below.
# input Quote viability at 48 h, 10 µM reported for C[C@]12CCC(=O)C[C@@H]1CC[C@@H]1[C@@H]2CC[C@]2(C)C=CC[C@@H]12 [Androstenone, 5α-androst-16-ene-3-one] please.
# output 89
